Experimental Details: Estrogenic activity in human ERalpha expressing MCF7:WS8 cells assessed as stimulation of cell proliferation after 7 days
Type: functional
Assay Setup: Homo sapiens, MCF7:WS8, 168 h; read-out: EC50
Quantity Kind: EC50 (nM)
Just the number please, in nM, no unit attached.

Given CCOc1ccc(/C(=C(/CC)c2ccc(O)cc2)c2ccc(O)cc2)cc1 , state its recorded EC50. 4
